What follows is literature data on IC50 for Rho-associated protein kinase 1 (Homo sapiens, UniProt Q13464).
Give bare numbers, in nM.

Previously resolved entries follow.
> print(dat)
                                    compound                           subject.of.test  value.reported
 1  COc1cc(C(=O)NC(C)c2ccc3c(c2)OCCO3)ccc1-c1cn[nH]c1 (stereo not drawn)  Rho-associated protein kinase 1 (Homo sapiens, UniProt Q13464)             742
 2  COc1cc(C(=O)NCc2cccc(C(=O)NC3CC3)c2)ccc1-c1cn[nH]c1  Rho-associated protein kinase 1 (Homo sapiens, UniProt Q13464)            2.44
 3  COc1cc(-c2c[nH]nc2C(F)(F)F)ccc1C(=O)NCc1c(F)cccc1Cl  Rho-associated protein kinase 1 (Homo sapiens, UniProt Q13464)            39.4
 4  O=C(Nc1ccc(-c2ccncc2)cc1)C(c1ccccc1)N1CCOCC1 (stereo not drawn)  Rho-associated protein kinase 1 (Homo sapiens, UniProt Q13464)             212
 5  O=C(c1cc2ccc(-c3nccc(Nc4ccc(-c5cn[nH]c5)cc4)n3)cc2[nH]1)N1CCC2(CCNCC2)CC1  Rho-associated protein kinase 1 (Homo sapiens, UniProt Q13464)            2940
 6  N#CC1CCN(C(=O)c2cc3ccc(-c4nccc(Nc5ccc(-c6cn[nH]c6)cc5)n4)cc3[nH]2)CC1  Rho-associated protein kinase 1 (Homo sapiens, UniProt Q13464)            3000
 7  CCN(CCO)C(=O)c1cc2ccc(-c3nccc(Nc4ccc(-c5cn[nH]c5)cc4)n3)cc2[nH]1  Rho-associated protein kinase 1 (Homo sapiens, UniProt Q13464)            3720
 8               Clc1cnc2ccc(NCc3ccccn3)nn12  Rho-associated protein kinase 1 (Homo sapiens, UniProt Q13464)           25000
 9  COc1cccc(C(CO)NC(=O)c2cccc(-c3ccc4[nH]ncc4c3)c2)c1 (stereo not drawn)  Rho-associated protein kinase 1 (Homo sapiens, UniProt Q13464)              33
10  COc1cc(C(=O)NCc2cccc(OC(F)(F)F)c2)ccc1-c1cn[nH]c1  Rho-associated protein kinase 1 (Homo sapiens, UniProt Q13464)            1710

Answer for every listed entry: what is its IC50? The entries follow.
1. COc1cccc(C(CCO)NC(=O)c2cc(-c3ccc4[nH]ncc4c3)ccn2)c1 (stereo not drawn)
2. COc1cc(-c2cn[nH]c2)ccc1C(=O)NC(c1ccccc1F)C(C)(C)O (stereo not drawn)
3. COc1cc(C(=O)NCc2cccc(N(C)C)c2)ccc1-c1cn[nH]c1
4. COc1ccc(F)c(CNC(=O)c2ccc(-c3cn[nH]c3)c(OC)c2)c1
5. Cc1cc(C(=O)N[C@H](C)c2ccccc2)ccc1-c1cn[nH]c1
6. COc1cccc(CNC(=O)Nc2cnn(-c3ccncc3)c2)c1
7. CC(C)NC(=O)C1COc2ccc(-c3nccc(Nc4ccc5[nH]ncc5c4)n3)cc2O1 (stereo not drawn)

1. 288
2. 37.3
3. 371
4. 14.3
5. 11
6. 130
7. 2060

###

pIC50: −log10 of the molar value.
What follows is literature data on pIC50 for Rho-associated protein kinase 1 (Homo sapiens).

Previously resolved entries follow.
> print(dat)
                                 smiles.str  reported.endpoint  value.reported
1  Cn1cc(C(=O)Nc2cccc(-n3nc(Nc4ccc5[nH]ncc5c4Cl)c4cnccc43)c2)cn1              pIC50          > 6.52
2  CC(C)(C)OC(=O)n1cc(NC(=O)c2cc3ccc(-c4nccc(Nc5ccc6[nH]ncc6c5)n4)cc3[nH]2)cn1              pIC50            6.25
3  Cn1cc(C(=O)Nc2cccc(-c3cc(Nc4ccc5[nH]ncc5c4)no3)c2)cn1              pIC50          > 6.52
4  Cn1cccc1CN[C@H]1CCN(S(=O)(=O)c2cccc3cncc(Cl)c23)C1              pIC50    5.52 to 6.00
5  Cn1c(C(=O)N2CC(F)(F)C2)cc2c1C(C)(C)N(c1nccc(Nc3ccc(-c4cn[nH]c4)cc3)n1)CC2              pIC50          < 5.35

Answer for every listed entry: what is its pIC50? The entries follow.
1. O=C(NCc1cccc(F)c1)c1ncn2cc(-c3cn[nH]c3)ccc12
2. O=C(Nc1cccc(-c2nc(Nc3ccc4[nH]ncc4c3Cl)no2)c1)c1ccccc1F
3. O=C(Nc1ccc(-c2ccncc2)cc1)N[C@@H](CO)Cc1ccccc1
4. O=C(c1cc2ccc(-c3nc(Nc4ccc(-c5cn[nH]c5)cc4)c4sccc4n3)cc2[nH]1)N1CC(F)(F)C1
5. CC(C)NC(=O)c1cc2ccc(-c3nccc(Nc4ccc(-c5cn[nH]c5)cc4)n3)cc2[nH]1

["5.30 to 6.30", "5.52 to 6.52", 7.08, "< 5.00", 5.99]

Answer for every listed entry: what is its pIC50? The entries follow.
1. COc1ccc(-c2cnc3ccc(NCc4ccccn4)nn23)cc1
2. O=C(C1CCOCC1)N1Cc2ccc(-c3nccc(Nc4ccc(-c5cn[nH]c5)cc4)n3)cc2C1
3. CCOc1ccc2c(c1)N(C(=O)Cc1ccc(-c3n[nH]c(=O)c4ccccc34)cc1)CC2
4. O=C(CCN1CCCCC1)N[C@H]1CCN(S(=O)(=O)c2cccc3cncc(Cl)c23)C1
5. CN(C)C(=O)c1cc2ccc(-c3nccc(Nc4ccc5[nH]ncc5c4)n3)cc2s1
6. O=C(NCc1cc(F)cc(OCC2CC2)c1)N1CCc2cc(-c3c[nH]nc3F)c(F)cc21

[4.77, "< 5.00", 7.64, "5.52 to 6.00", "< 5.00", "≥ 7.30"]

###

What follows is literature data on IC50 for Rho-associated protein kinase 1 (Homo sapiens, UniProt Q13464).
Label yes (1) when IC50 < 2000 nM; otherwise no (0).

> print(dat)
                                   molecule  answer.label
1  COc1cc(C(=O)NCc2cccc(OC(F)F)c2)ccc1-c1cn[nH]c1       yes (1)
2  Cc1cn(-c2ccc3c(c2)CCN(C(=O)C(C)C)C3)nc1Nc1ccc2[nH]ncc2c1Cl        no (0)
3  O=C(NC1CCOCC1)c1cc2ccc(-c3nccc(Nc4ccc5[nH]ncc5c4)n3)cc2[nH]1       yes (1)
4  COc1cc(F)cc([C@@H](CO)NC(=O)c2ncn3cc(-c4cn[nH]c4)ccc23)c1       yes (1)
5  CC(O)c1cc(C(=O)N[C@H](C)c2ccccc2)ccc1-c1cn[nH]c1 (some centres unmarked)        no (0)
6  O=C(Cc1ccc(-c2n[nH]c(=O)c3ccccc23)cc1)NC1CCC1        no (0)

We now examine a further molecule.
Say whether its IC50 is strictly beneath 2000 nM. Entry: COc1cc(C(=O)NCc2ccc(Cl)cc2S(=O)(=O)CC(C)C)ccc1-c1cn[nH]c1
no (0)

###

What follows is literature data on pIC50 for Rho-associated protein kinase 1 (Homo sapiens, UniProt Q13464).
pIC50: −log10 of the molar value.
Label true when pIC50 is at or above 7; otherwise label false.

Reference set (5 entries):
> print(dat)
                                   compound                           subject.of.test  answer.label
1  COc1ccc(F)c(C(C)NC(=O)c2ccc(-c3c[nH]nc3C)cc2OC)c1 (stereo not shown)  Rho-associated protein kinase 1 (Homo sapiens, UniProt Q13464)          true
2  O=C(COc1cccc(CNC(=O)c2ccc(-c3ccncc3)cc2)c1)NC1CC1  Rho-associated protein kinase 1 (Homo sapiens, UniProt Q13464)          true
3  Cn1c(C(=O)N2CC(F)(F)C2)cc2ccc(-c3nc(Nc4ccc(-c5cn[nH]c5)cc4)c4c(n3)OCCO4)cc21  Rho-associated protein kinase 1 (Homo sapiens, UniProt Q13464)         false
4  O=C(C1CC(F)(F)C1)N1Cc2ccc(-c3nc(Nc4ccc(-c5cn[nH]c5)cc4)c4cc[nH]c4n3)cc2C1  Rho-associated protein kinase 1 (Homo sapiens, UniProt Q13464)         false
5  N[C@H](Cc1cccc(F)c1)C(=O)Nc1ccc(-c2ccncc2)cc1  Rho-associated protein kinase 1 (Homo sapiens, UniProt Q13464)          true

Could you tell me if the measured pIC50 of COc1cc(C(=O)NCc2ccc3c(c2)OCO3)ccc1-c1cn[nH]c1 reaches 7 or more?
true

Could you tell me if the measured pIC50 of Cn1c(C(=O)N2CC(F)(F)C2)cc2c1CN(c1nncc(Nc3ccc(-c4cn[nH]c4)cc3)n1)CC2 reaches 7 or more?
false
